Value source: patent US9957247B2

- tgt: PaSecA (Pseudomonas aeruginosa, UniProt Q9LCT3)
- Sequence (Q9LCT3 whole entry): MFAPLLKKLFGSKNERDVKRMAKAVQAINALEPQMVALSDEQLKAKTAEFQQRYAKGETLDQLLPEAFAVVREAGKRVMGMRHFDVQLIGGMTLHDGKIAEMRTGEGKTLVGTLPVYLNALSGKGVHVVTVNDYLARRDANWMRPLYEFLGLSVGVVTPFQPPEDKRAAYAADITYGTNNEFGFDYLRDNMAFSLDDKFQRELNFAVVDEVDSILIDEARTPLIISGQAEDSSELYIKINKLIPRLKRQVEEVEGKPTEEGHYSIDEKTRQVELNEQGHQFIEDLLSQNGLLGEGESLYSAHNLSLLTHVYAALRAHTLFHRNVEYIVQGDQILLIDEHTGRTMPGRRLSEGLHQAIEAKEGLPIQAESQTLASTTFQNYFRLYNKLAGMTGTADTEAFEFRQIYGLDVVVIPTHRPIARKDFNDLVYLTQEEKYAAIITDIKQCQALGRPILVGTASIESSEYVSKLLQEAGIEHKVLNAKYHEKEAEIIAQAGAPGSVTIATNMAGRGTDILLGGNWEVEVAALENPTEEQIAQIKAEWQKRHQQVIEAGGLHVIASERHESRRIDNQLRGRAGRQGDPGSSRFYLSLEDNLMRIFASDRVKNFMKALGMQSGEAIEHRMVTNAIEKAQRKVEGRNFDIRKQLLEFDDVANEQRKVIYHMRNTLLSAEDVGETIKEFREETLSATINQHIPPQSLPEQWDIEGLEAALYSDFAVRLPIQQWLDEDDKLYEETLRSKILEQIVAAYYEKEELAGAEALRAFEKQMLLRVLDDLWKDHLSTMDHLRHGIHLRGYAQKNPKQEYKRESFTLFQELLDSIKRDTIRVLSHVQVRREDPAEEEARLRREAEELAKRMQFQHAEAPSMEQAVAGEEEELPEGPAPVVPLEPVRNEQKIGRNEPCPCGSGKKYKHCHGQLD
- assay-procedure: cell-based
- Assay type: cell-based
- measurement-parameters: IC50, Ion Channel activity, PASecA, Table 1
reported-endpoint: IC50 (µM)

| compound-smiles | reported-value |
| --- | --- |
| CCCCCCC1c2ccc(O)cc2Oc2cc(O)ccc21 | 3 |
| CSc1nc(Cl)cc(Sc2nnc(-c3cc(C(F)(F)F)cc(C(F)(F)F)c3)[nH]2)n1 | 1.3 |
| Oc1ccc2c(c1)Oc1cc(O)ccc1C2C1CCCC1 | 3.6 |
| O=C(O)c1c(Cl)c(Cl)c(Cl)c(Cl)c1-c1c2cc(I)c(=O)c(I)c-2oc2c(I)c(O)c(I)cc12 | 0.3 |
